Assay: Cy5 fluorescence interference with SSB-bound oligo, artefact control for HCV NS3 helicase inhibitor project, biochemical, NIH Clinical Collection, E. coli SSB (AID 743268)
Active and inactive are the calls of the source. No rule for the calls is given here.
Bench note: report the call from TRUE for active, FALSE for inactive

Hello, I am checking results. What call was entered for O=C(NC(CO)C(O)c1ccc([N+](=O)[O-])cc1)C(Cl)Cl (configuration not stated) ?
TRUE

GET /call?item= C[C@H]1[C@@H](OC(=O)CCC(=O)O)O[C@@H]2OC3(C)CC[C@H]4[C@H](C)CC[C@@H]1[C@@]24OO3 returns the recorded outcome of this test.
FALSE

Given COc1cc(C)c(/C=C/C(C)=C/C=C/C(C)=C/C(=O)O)c(C)c1C , state the outcome it received in this test.
FALSE

Recorded call for CN1CC(=O)N2[C@H](c3ccc4c(c3)OCO4)c3[nH]c4ccccc4c3C[C@@H]2C1=O ?
FALSE

Entry COc1cc([C@@H]2c3cc4c(cc3[C@@H](O[C@@H]3O[C@@H]5CO[C@@H](C)O[C@H]5[C@H](O)[C@H]3O)[C@H]3COC(=O)[C@H]23)OCO4)cc(OC)c1O : call = ?
FALSE

Identify the outcome logged in this assay for the compound shown: CSc1nc2cc(Oc3cccc(Cl)c3Cl)c(Cl)cc2[nH]1
FALSE

Dear all, I need the recorded test outcome for CO[C@H]1/C=C/O[C@@]2(C)Oc3c(C)c(O)c4c(O)c(c(C=NN5CCN(C)CC5)c(O)c4c3C2=O)NC(=O)/C(C)=C\C=C\[C@H](C)[C@H](O)[C@@H](C)[C@@H](O)[C@@H](C)[C@H](OC(C)=O)[C@@H]1C , thank you.
TRUE
